Where do the numbers come from? From patent US20260167731A1.

# TARGET_OR_TEST_SYSTEM: T1, pwt1, unmodified CCR8 related peptide (human, none (non-sulfated Y15, Y16, Y17))
# T1 construct: First 34 amino acids of human CCR8, synthetic; also called unmodified peptide
# T1 sequence (peptide, as listed by the source): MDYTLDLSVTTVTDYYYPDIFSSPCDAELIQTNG
# METHOD_DESCRIPTION: ELISA on coated CCR8 peptide (500 ng/mL), OD [cont.]
RESULT_TYPE: binding result

| BINDER | MEAS_VALUE |
| --- | --- |
| anti-CCR8 mAb 2-5 (antibody, V domains shown) VH: EVQLQQSGPELVKPGASVKISCKTSGYTFTEYTIHWVKQSHGKSLEWVGGINPDNGNTRYDQKFKGKATLTIDKSSSTAYMELRSLTSEDSAVYYCARVARSSGSGPYAMDYWGQGTSVTVSS VL: DVVMTQTPLSLPVSLGDQASISCRCTQSLLHTNGDTYLHWYLQKPGQSPKLLIYKVSNRFSGVPDRFSGSGSGTDFTLKISRVEAEDLGVYFCSQSTHVPYTFGGGTKLEIK | binds |
| anti-CCR8 mAb 2-1 (antibody, V domains shown) VH: KVQLQQSGPELVKPGASVKISCKTSGYTFTEYTIHWVQQIHGKSPEWIGGINPNGDTRYDQKFKGKATLTIDKSSSTAYMELRSLTSEDSAVYYCARVARFYGISPYAMDYWGQGTSVTVSS VL: DVVMTQTPLSLPVSLGDQASISCRCTQSLLHSNGDTYLHWYLQKPGQSPNLLIYKVSNRFSGVPDRFSGSGSGTDFTLKINRVEAEDLGVYFCSQSTHVPYTFGGGTNLEIK | binds |
| anti-CCR8 mAb 2-6 (antibody, V domains shown) VH: QVQLKESGPGLVAPSQSLSITCTVSGLSMNDYVVTWIRQPPGKGLEWLGVIWGGGNTYYNSDLKSRLSITKDNSKSQVFFKMSSLQTDDTAVYYCARRHRDYALDYWGQGISVTVSS VL: ENVLTQSPAIMSASPGEKVTMTCRASSSVSSSYLHWYQQKSGASPKLWIYSTSNLASGVPARFSGSGSGTSYSLTISSVEAEDAATYYCQQYSGYPYTFGGGTKLEIK | binds |
